target: Vitamin D3 receptor (Homo sapiens) (UniProt P11473); assay: qHTS assay for small molecule agonists of vitamin D receptor signaling (AID 588543); details: HEK293T VDR-UAS-bla, beta-lactamase ratio, 16 h; series mostly up to 76.8 µM;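 also: 0% = DMSO basal and 100% = reference agonist control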
Sequence (P11473 whole entry, looked up): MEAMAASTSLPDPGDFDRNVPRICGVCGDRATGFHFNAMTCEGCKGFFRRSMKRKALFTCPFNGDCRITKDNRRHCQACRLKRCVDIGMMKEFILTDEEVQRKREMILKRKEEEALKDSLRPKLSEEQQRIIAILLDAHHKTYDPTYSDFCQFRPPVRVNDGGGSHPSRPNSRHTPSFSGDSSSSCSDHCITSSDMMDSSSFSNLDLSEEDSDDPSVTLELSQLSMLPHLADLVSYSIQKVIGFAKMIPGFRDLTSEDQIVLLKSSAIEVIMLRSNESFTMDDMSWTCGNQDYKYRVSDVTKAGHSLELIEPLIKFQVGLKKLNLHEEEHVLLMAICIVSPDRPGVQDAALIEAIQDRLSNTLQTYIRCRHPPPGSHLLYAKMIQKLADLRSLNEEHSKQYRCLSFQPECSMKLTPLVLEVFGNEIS
Results filed as inconclusive are left out. Active and inactive are the calls of the source. Calls follow the shape of the full dose curve.
In this exercise, the only acceptable responses are active, inactive

Study these solved cases before continuing.
Nc1cc([N+](=O)[O-])ccc1O :: inactive
CCOC(=O)C1OC1c1ccccc1 (stereo not given) :: inactive
Nc1cc(C(=O)O)c(O)c(S(=O)(=O)O)c1 :: inactive

What call does the record list for O=[N+]([O-])c1cc(Cl)c(Cl)c(Cl)c1Cl ?
inactive

What call does the record list for CC(/C=C/C=C(C)/C=C/C(=O)O)=C\C=C\C=C(C)\C=C\C=C(C)\C=C\C(=O)O ?
inactive

What call does the record list for c1ccncc1 ?
inactive

====

biological target: Lysosomal acid glucosylceramidase (Homo sapiens); assay: Glucocerebrosidase-p2 (AID 348); settings: purified GBA, blue fluorogenic substrate, 40 min; also: potency is read from the fitted curve at half-maximal effect
Activity calls are given as the source filed them. Rule as the data show it: active = potency below about 10 µM; inactive = the rest.
Here the recorded Potency is given for each entry.

Worked set:
O=C(NCc1cccs1)O[C@H]1C[C@H]2CC[C@@H]1C2 :: > 11.4 µM (inactive)
Cc1ccccc1S(=O)(=O)O[C@@H]1NS(=O)(=O)c2ccccc21 :: > 11.4 µM (inactive)

Identify the measured Potency of CC(C)C(=O)C(C)(C)CCc1ccccn1 for Lysosomal acid glucosylceramidase (Homo sapiens).
> 11.4 µM (inactive)

Identify the measured Potency of Clc1ccc(CSCCc2ccncc2)cc1Cl for Lysosomal acid glucosylceramidase (Homo sapiens).
> 11.4 µM (inactive)

Identify the measured Potency of CSC1(SC2=NCCN2)SC2(NCCN2)S1 for Lysosomal acid glucosylceramidase (Homo sapiens).
> 11.4 µM (inactive)

Identify the measured Potency of Cc1c(Cl)cccc1NC(=O)C[C@H]1Sc2ccccc2NC1=O for Lysosomal acid glucosylceramidase (Homo sapiens).
> 11.4 µM (inactive)

====

Experiment: NFAT Signaling Pathway (AID 444);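 also: carbachol stimulus at about its EC50 of 1 µM final; % is scaled to controls: 0 for no effect and ±100 for the full control effect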
Details: Jurkat NFAT-bla M1, carbachol, beta-lactamase ratio, 5 h; at 7.69 µM (top of the series) unless noted
Description: NCGC Assay Overview: The nuclear factor of activated T cells (NFAT) family of transcription factors has been found primarily in most immune system cells and some other non-immune cells. NFAT plays the immunomodulatory role, primarily in T-cell activation and differentiation. […] NCGC Assay Protocol Summary: The cells were prepared in RPMI 1640 medium containing 0.1% dialyzed FBS and 25 mM HEPES at 1.6 x 10^6cell/ml. […] The %Activity was determined from the ratio of 460nm/530nm. […]
Results filed as inconclusive are left out.
readout_label: activity change, negative = inhibition (%)
Write the value in % as a bare number.

Worked set:
CCN1CCC(O)([C@H](C(=O)O)c2ccccc2)CC1 :: 16.2
CCCS(=O)(=O)O :: 0.712
NS(=O)(=O)c1cc2c(cc1Cl)=NC(CCC(=O)O)=NS=2(=O)O :: 7.52

Name the recorded activity change, negative = inhibition for COc1ncc2nc(-c3cc(F)cc(F)c3)c(=O)n(C3CC3)c2n1 .
-2

Name the recorded activity change, negative = inhibition for O=C(O)c1nn(-c2ccccc2-c2n[nH]c(=O)[nH]c2=O)c(=O)[nH]c1=O .
18.8

Name the recorded activity change, negative = inhibition for CN1CCc2nc(N)nc(-c3nc(N)nc4c3CN(C)CC4)c2C1 .
7.63
